Provenance of the data: the supplement of paper PMC7125110

Exercise: state measured self-cleavage kobs at 2500 uM GlcN6P for each of the variants provided.
B1: glmS ribozyme (parent)
chain: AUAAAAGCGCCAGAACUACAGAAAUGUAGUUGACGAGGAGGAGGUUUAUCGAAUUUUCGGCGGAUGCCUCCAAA

Variants of: B1
Assay: self-cleavage kobs at 2500 uM GlcN6P; higher = faster cleavage; RNA array
Settings: with glucosamine-6-phosphate
Fewer inactive variants are shown than the library holds.

So, C19A G44A ? Its self-cleavage kobs at 2500 uM GlcN6P was 0.000112 s⁻¹

So, C8A C61U G66A ? Its self-cleavage kobs at 2500 uM GlcN6P was < 1e-05 s⁻¹

So, G9C A15U G66C C70G ? Its self-cleavage kobs at 2500 uM GlcN6P was < 1e-05 s⁻¹

So, G32A G63U ? Its self-cleavage kobs at 2500 uM GlcN6P was < 1e-05 s⁻¹

So, A39G G41U C68G ? Its self-cleavage kobs at 2500 uM GlcN6P was < 1e-05 s⁻¹

So, A12G C58G ? Its self-cleavage kobs at 2500 uM GlcN6P was 7.99e-05 s⁻¹

So, C50G C61U C71U ? Its self-cleavage kobs at 2500 uM GlcN6P was 9.98e-05 s⁻¹

So, U30A G62A ? Its self-cleavage kobs at 2500 uM GlcN6P was < 1e-05 s⁻¹

So, G13U A39G ? Its self-cleavage kobs at 2500 uM GlcN6P was 0.00177 s⁻¹

So, C11G A33U U47G ? Its self-cleavage kobs at 2500 uM GlcN6P was < 1e-05 s⁻¹

So, G13A U55G C71G ? Its self-cleavage kobs at 2500 uM GlcN6P was 7.49e-05 s⁻¹

So, A14C U31C U54C ? Its self-cleavage kobs at 2500 uM GlcN6P was 0.0014 s⁻¹

So, A14G G35A U45G G66U ? Its self-cleavage kobs at 2500 uM GlcN6P was < 1e-05 s⁻¹

So, C8U A14C ? Its self-cleavage kobs at 2500 uM GlcN6P was < 1e-05 s⁻¹

So, A14C A15C ? Its self-cleavage kobs at 2500 uM GlcN6P was 0.0011 s⁻¹

So, C34A G35U U55G ? Its self-cleavage kobs at 2500 uM GlcN6P was < 1e-05 s⁻¹

So, G7U U31G G62A ? Its self-cleavage kobs at 2500 uM GlcN6P was < 1e-05 s⁻¹

So, A15G G29A A36G ? Its self-cleavage kobs at 2500 uM GlcN6P was < 1e-05 s⁻¹

So, U47G C50U U56C A64U ? Its self-cleavage kobs at 2500 uM GlcN6P was < 1e-05 s⁻¹

So, G9U A39U A48U C50A U57C G66A ? Its self-cleavage kobs at 2500 uM GlcN6P was < 1e-05 s⁻¹

So, U31A A33U U56G U65G C68A ? Its self-cleavage kobs at 2500 uM GlcN6P was < 1e-05 s⁻¹

So, U30C G63A U69G ? Its self-cleavage kobs at 2500 uM GlcN6P was 8.06e-05 s⁻¹
